# procedure summary: Solubility in PBS
# Format: physicochemical
For each record, write down the corresponding Solubility.

INSERT INTO assay_data (molecule, observed_result) VALUES
  ('CC[C@@H]1NC(=O)[C@H](CC(=O)O)NC(=O)[C@]2(CC=CCCCC3(CCCC=CCCCCCC[C@@](C)(C(=O)N[C@@H](Cc4ccccc4)C(=O)N[C@@H](Cc4csc5ccccc45)C(=O)N[C@@H](CCC(N)=O)C(N)=O)NC(=O)[C@H](CC(N)=O)NC(=O)[C@H](Cc4ccccc4)NC(=O)[C@H](C)NC(=O)[C@H](C)NC(=O)[C@H](CCC(=O)O)NC(=O)[C@H](CC(=O)O)NC3=O)NC1=O)CCCN2C(C)=O (some centres unmarked) [I-474]', '50 µM');

Turning now to a further record.
Briefly, Solubility measured for CC(=O)N1CCC[C@]12CC=CCCCC1(CCCC=CCOC(=O)N(C)CCC[C@@](C)(C(=O)N[C@@H](Cc3ccsc3)C(=O)N[C@@H](Cc3csc4ccccc34)C(=O)N[C@@H](Cc3c[nH]cn3)C(N)=O)NC(=O)[C@H](CC(N)=O)NC(=O)[C@H](Cc3ccccc3)NC(=O)[C@H](C)NC(=O)[C@H](C)NC(=O)[C@H](CC(=O)O)NC(=O)[C@H](CC(=O)O)NC1=O)NC(=O)[C@H](CC(C)(C)C)NC(=O)[C@H](CC(=O)O)NC2=O (some centres unmarked) [I-774] : 46 µM
